# Test system: two-spotted spider mites
# PROTOCOL: Test Example 1: acaricidal activity, dipping of kidneybean leaves infested with two-spotted spider mites
# Type: in vivo
# CONDITION LABEL: 0.04 p.p.m., after 24 hours
Parameter threshold = 20%. Response is y when activity at 0.04 ppm meets or exceeds it, else n.

| COMPOUND | ANSWER LABEL |
| --- | --- |
| CCC1OC2(CCC1C)CC1CC(CC=C(C)CC(C)C=CC=C3COC4C(O)C(C)=CC(C(=O)O1)C34O)O2 (centres unmarked) | y |
| CCC1OC2(CCC1C)CC1CC(CC=C(C)CC(C)C=CC=C3COC4C(O)C(COC(=O)c5ccc[nH]5)=CC(C(=O)O1)C34O)O2 (centres unmarked) | y |
| CC1=CCC2CC(CC3(CCC(C)C(C)O3)O2)OC(=O)C2C=C(C)C(O)C3OCC(=CC=CC(C)C1)C23O (centres unmarked) | n |
| CC1=CCC2CC(CC3(CCC(C)C(C)O3)O2)OC(=O)C2C=C(COC(=O)c3ccc[nH]3)C(O)C3OCC(=CC=CC(C)C1)C23O (centres unmarked) | y |
| CCC1OC2(CCC1C)CC1CC(CC=C(C)CC(C)C=CC=C3COC4C(OC)C(C)=CC(C(=O)O1)C34O)O2 (centres unmarked) | n |

* * *

# PROTOCOL: Alcohol solution, neutralization titration method (pKa)
# Type: physicochemical

| COMPOUND | pKa (No pKa at pH ranging from 2 to 12) |
| --- | --- |
| CC1=CCC2CC(CC3(CCC(C)C(C)O3)O2)OC(=O)C2C=C(COC(=O)c3ccc[nH]3)C(O)C3OCC(=CC=CC(C)C1)C23O (stereo not shown) [C1] | No pKa |
| CC1=CCC2CC(CC3(CCC(C)C(C)O3)O2)OC(=O)C2C=C(C)C(O)C3OCC(=CC=CC(C)C1)C23O (stereo not shown) [A3] | do. |
| COC1CC2(O)C(CO)=CC=CC(C)CC(C)=CCC3CC(CC4(CCC(C)C(C)O4)O3)OC(=O)C2C=C1C (stereo not shown) [A1] | No pKa |
| CCC1OC2(CCC1C)CC1CC(CC=C(C)CC(C)C=CC=C3COC4C(O)C(COC(=O)c5ccc[nH]5)=CC(C(=O)O1)C34O)O2 (stereo not shown) [C2] | do. |

* * *

# Tested on: two-spotted spider mites
# PROTOCOL: Test Example 1: acaricidal activity, dipping of kidneybean leaves infested with two-spotted spider mites
# Type: in vivo
# CONDITION LABEL: 0.31 p.p.m., after 24 hours
In this section we review reported activity at 0.31 ppm values for a set of molecules.

| MOLECULE | UNIT ABBREVIATION | activity at 0.31 ppm |
| --- | --- | --- |
| CCC1OC2(CCC1C)CC1CC(CC=C(C)CC(C)C=CC=C3COC4C(O)C(COC(=O)c5ccc[nH]5)=CC(C(=O)O1)C34O)O2 (stereo not drawn) | % | 100 |
| CCC1OC2(CCC1C)CC1CC(CC=C(C)CC(C)C=CC=C3COC4C(O)C(C)=CC(C(=O)O1)C34O)O2 (stereo not drawn) | % | 100 |
| COC1C(C)=CC2C(=O)OC3CC(CC=C(C)CC(C)C=CC=C4COC1C42O)OC1(CCC(C)C(C)O1)C3 (stereo not drawn) | % | 80.5 |
| CCC1OC2(CCC1C)CC1CC(CC=C(C)CC(C)C=CC=C3COC4C(OC)C(C)=CC(C(=O)O1)C34O)O2 (stereo not drawn) | % | 100 |
| CC1=CCC2CC(CC3(CCC(C)C(C)O3)O2)OC(=O)C2C=C(COC(=O)c3ccc[nH]3)C(O)C3OCC(=CC=CC(C)C1)C23O (stereo not drawn) | % | 100 |
| CC1=CCC2CC(CC3(CCC(C)C(C)O3)O2)OC(=O)C2C=C(C)C(O)C3OCC(=CC=CC(C)C1)C23O (stereo not drawn) | % | 100 |
